# Tested on: human colon cancer cell line HT-29
# measurement-description: MTT assay, growth inhibition of HT-29 cells
# Type: cell-based
# condition: 96-hr culture, read-out: IC50 ± SD, HT-29
readout-name: IC50 (µM)

C[C@H](O)C(=O)N1CCN(Cc2cc3c(N4CCOCC4)nc(-c4cnc(N)nc4)nn3c2)CC1
0.31
CS(=O)(=O)N1CCN(C(=O)c2cc3c(N4CCOCC4)nc(-c4cccc5[nH]ncc45)nn3c2)CC1
0.73
CS(=O)(=O)N1CCN(Cc2cc3nc(-c4cccc5[nH]ncc45)nc(N4CCOCC4)c3s2)CC1 [GDC-0941, reference compound]
0.78
CS(=O)(=O)N1CCN(Cc2cc3c(N4CCOCC4)nc(-c4cccc5[nH]ccc45)nn3c2)CC1
0.99
CS(=O)(=O)N1CCN(Cc2cc3c(N4CCOCC4)nc(-c4cnc(N)nc4)nn3c2)CC1
1.21
C[C@@H](O)C(=O)N1CCN(Cc2cc3c(N4CCOCC4)nc(-c4cnc(N)nc4)nn3c2)CC1
0.85
Nc1ncc(-c2nc(N3CCOCC3)c3cc(CN4CCN(C(=O)C5CC5)CC4)cn3n2)cn1
0.87

[a] CS(=O)(=O)N1CCN(Cc2cc3c(N4CCOCC4)nc(-c4ccnc5[nH]ccc45)nn3c2)CC1
[b] CS(=O)(=O)N1CCN(Cc2cc3c(N4CCOCC4)nc(-c4cccc5[nH]ncc45)nn3c2)CC1
[c] CCS(=O)(=O)N1CCN(Cc2cc3c(N4CCOCC4)nc(-c4cnc(N)nc4)nn3c2)CC1
[d] CC(=O)N1CCN(Cc2cc3c(N4CCOCC4)nc(-c4cnc(N)nc4)nn3c2)CC1
[e] CC(C)(O)c1cc2c(N3CCOCC3)nc(-c3cccc4[nH]ncc34)nn2c1
// query Order the entries by their reported IC50, beginning at the minimum. Respond with an ordered listing of the labels, as requested.
// result b, d, c, a, e

----------
# System: human breast cancer cell line BT-549
# measurement-description: MTT assay, growth inhibition of BT-549 cells
# Type: cell-based
# condition: 96-hr culture, read-out: IC50 ± SD, BT-549
readout-name: IC50 (nM)

Consider the reported IC50 for these molecules:
C[C@@H](O)C(=O)N1CCN(Cc2cc3c(N4CCOCC4)nc(-c4cnc(N)nc4)nn3c2)CC1
290
CS(=O)(=O)N1CCN(Cc2cc3c(N4CCOCC4)nc(-c4ccnc5[nH]ccc45)nn3c2)CC1
1990
Nc1ncc(-c2nc(N3CCOCC3)c3cc(CN4CCN(C(=O)C5CC5)CC4)cn3n2)cn1
410
CCS(=O)(=O)N1CCN(Cc2cc3c(N4CCOCC4)nc(-c4cnc(N)nc4)nn3c2)CC1
340

[I] C[C@H](O)C(=O)N1CCN(Cc2cc3c(N4CCOCC4)nc(-c4cnc(N)nc4)nn3c2)CC1
[II] CS(=O)(=O)N1CCN(Cc2cc3c(N4CCOCC4)nc(-c4cccc5[nH]ccc45)nn3c2)CC1
[III] CS(=O)(=O)N1CCN(Cc2cc3c(N4CCOCC4)nc(-c4cccc5[nH]ncc45)nn3c2)CC1
// query Hey, quick one: sort these by IC50, largest value first please. Respond with an ordered listing of the labels, as requested.
// result II, III, I
(II: 1270 nM, III: 350 nM, I: 130 nM)

[I] CS(=O)(=O)N1CCN(Cc2cc3c(N4CCOCC4)nc(-c4cnc(N)nc4)nn3c2)CC1
[II] CC(C)(O)c1cc2c(N3CCOCC3)nc(-c3cccc4[nH]ncc34)nn2c1
// query Higher IC50: I or II ? Identify your pick by its label.
// result II

[A] CC(=O)N1CCN(Cc2cc3c(N4CCOCC4)nc(-c4cnc(N)nc4)nn3c2)CC1
[B] CS(=O)(=O)N1CCN(C(=O)c2cc3c(N4CCOCC4)nc(-c4cccc5[nH]ncc45)nn3c2)CC1
// query Looking only at measured IC50, which entry is lower, A or B ? Identify your pick by its label.
// result A
(A: 110 nM, B: 590 nM)

----------
# System: human prostatic cancer cell line PC-3
# measurement-description: MTT assay, growth inhibition of PC-3 cells
# Assay type: cell-based
# condition: 96-hr culture, read-out: IC50 ± SD, PC-3
readout-name: IC50 (nM)

Consider the reported IC50 for these compounds:
Nc1ncc(-c2nc(N3CCOCC3)c3cc(CN4CCN(C(=O)C5CC5)CC4)cn3n2)cn1 [Compound I-9]
930
CCS(=O)(=O)N1CCN(Cc2cc3c(N4CCOCC4)nc(-c4cnc(N)nc4)nn3c2)CC1 [Compound I-7]
290
CS(=O)(=O)N1CCN(Cc2cc3c(N4CCOCC4)nc(-c4ccnc5[nH]ccc45)nn3c2)CC1 [Compound I-3]
780

[P] CC(C)(O)c1cc2c(N3CCOCC3)nc(-c3cccc4[nH]ncc34)nn2c1 [Compound I-6]
[Q] CS(=O)(=O)N1CCN(Cc2cc3nc(-c4cccc5[nH]ncc45)nc(N4CCOCC4)c3s2)CC1 [GDC-0941, reference compound]
// query Looking only at measured IC50, which entry is lower, P or Q ? Identify your pick by its label.
// result Q
(Q: 220 nM, P: 1050 nM)

----------
# Test system: human prostatic cancer cell line PC-3
# measurement-description: MTT assay, growth inhibition of PC-3 cells
# Type: cell-based
# condition: 96-hr culture, read-out: IC50 ± SD, PC-3
readout-name: IC50 (nM)

CS(=O)(=O)N1CCN(C(=O)c2cc3c(N4CCOCC4)nc(-c4cccc5[nH]ncc45)nn3c2)CC1 [Compound I-5]
220

[1] C[C@@H](O)C(=O)N1CCN(Cc2cc3c(N4CCOCC4)nc(-c4cnc(N)nc4)nn3c2)CC1 [Compound I-11]
[2] CS(=O)(=O)N1CCN(Cc2cc3c(N4CCOCC4)nc(-c4cccc5[nH]ncc45)nn3c2)CC1 [Compound I-2]
// query Higher IC50: 1 or 2 ? Identify your pick by its label.
// result 2
(2: 440 nM, 1: 250 nM)
